system: acute HIV infection of T-lymphoid cells; assay: Assay for inhibition of HIV replication (spread assay); type: cell-based, HIV-1; conditions: Human immunodeficiency virus 1, T-lymphoid; read-out: Spread - IC95
Where a name gives a salt, the structure may show the parent alone.
endpoint: IC95
# number then unit; no other words

COC(=O)N[C@H](C(=O)NC(C)(C)CCC[C@@H](CO)N(CC(C)C)S(=O)(=O)c1ccc(N)cc1)C(c1ccccc1)c1ccccc1 ... 185 nM
COC(=O)N[C@@H](Cc1ccccc1Cl)C(=O)N[C@@H](C)CCC[C@@H](CO)N(CCC(C)C)S(=O)(=O)c1ccc(N)cc1 ... 19 nM
COC(=O)N[C@H](C(=O)NC(C)(C)CCC[C@@H](CO)N(CCCF)S(=O)(=O)c1ccc(N)cc1)C(c1ccccc1)c1ccccc1 ... 178 nM
COC(=O)N[C@H](C(=O)N[C@@H](C)CCC[C@@H](CO)N(C(C)C)S(=O)(=O)c1ccc(N)cc1)C(c1cccc(F)c1)c1cccc(F)c1 ... 16 nM
COC(=O)N[C@H](C(=O)N[C@H](CCC[C@@H](CO)N(CCC(C)C)S(=O)(=O)c1ccc(CO)cc1)C(F)(F)F)C(c1ccccc1)c1ccccc1 ... 8 nM

Data request: Please look up its IC95: CC(C)N([C@H](CO)CCCC(C)(C)NC(=O)[C@@H](N)Cc1ccccc1Cl)S(=O)(=O)c1ccc(N)cc1 [Example L10, hydrochloride]
Data returned: 241 nM

Data request: Query (molecule): CC[C@@H](CCC[C@@H](CO)N(CCC(C)C)S(=O)(=O)c1ccc(N)cc1)NC(=O)[C@@H](NC(=O)OCc1ccncc1)C(c1ccccc1)c1ccccc1 ; field requested: IC95
Data returned: 17 nM

Data request: Fill in: IC95 of CCCN([C@H](CO)CCC[C@@H](NC(=O)[C@@H](NC(=O)OC)C(c1ccccc1)c1ccccc1)C1CC1)S(=O)(=O)c1ccc(CO)cc1 is ___
Data returned: 29 nM

Data request: Report IC95 for COC(=O)N[C@H](C(=O)N[C@@H](C)CCC[C@@H](CO)N(C(C)C)S(=O)(=O)c1ccc(CO)cc1)C(c1ccccc1)c1ccccc1 please.
Data returned: 13 nM

---

target: wild-type HIV-1 protease (Human immunodeficiency virus type 1 group M subtype B); assay: Assay for inhibition of microbial expressed HIV protease; assay type: biochemical; details: wild-type HIV-1 protease expressed in E. coli, peptide substrate, pH 5.5; read-out: Enzyme Inhibition - IC50
endpoint: log10 IC50 (log10 of the value in nM)
Give log10 of IC50, with IC50 taken in nM.

Here's what some known entries look like.
COC(=O)N[C@H](C(=O)N[C@@H](CCC[C@@H](CO)N(CCC(C)C)S(=O)(=O)c1ccc(CO)cc1)C(F)(F)F)C(c1ccccc1)c1ccccc1 ... -0.21
CCCN([C@H](CO)CCC[C@H](CC)NC(=O)[C@@H](NC(=O)OC)C(c1ccccc1)c1ccccc1)S(=O)(=O)c1ccc(CO)cc1 ... -1.39
COC(=O)N[C@@H](Cc1ccccc1Cl)C(=O)N[C@@H](C)CCC[C@@H](CO)N(C(C)C)S(=O)(=O)c1ccc(CO)cc1 ... -0.41
COC(=O)N[C@@H](Cc1ccccc1Cl)C(=O)N[C@H](CCC[C@@H](CO)N(CCC(C)C)S(=O)(=O)c1ccc([C@H](C)O)cc1)C1CC1 ... -0.43
COC(=O)N[C@H](C(=O)NCCCC[C@@H](CN)N(CCC(C)C)S(=O)(=O)c1ccc(N)cc1)C(c1ccccc1)c1ccccc1 ... 0.70

Then this compound:
Data request: So what does the record say about log10 IC50 for CN[C@H](C(=O)N[C@H](CCC[C@@H](CO)N(CC(C)C)S(=O)(=O)c1ccc(CO)cc1)C1CC1)C(c1ccccc1)c1ccccc1 ?
Data returned: -1.10

The measured values listed here are drawn from patent US20100093811A1.
